The measurements presented in this section are drawn from ChEMBL document CHEMBL1150018.

- Test protocol: Kinetic constant log k was determined
- Format: ADME
Parameter: Log k
No unit in the answer, please; the number alone is enough.

Here's what some known entries look like.
Molecule: CC/C(=C\C(=N\O)C(N)=O)C([N+](=O)[O-])C(C)(C)C (stereo unspecified)
Parameter: Log k
Number: -3.62
--
Molecule: CC/C(=C\C(CNC(=O)c1cccnc1)=N\O)C(CC)[N+](=O)[O-] (stereo unspecified)
Parameter: Log k
Number: -2.699

Exam item: Could you share which Log k value was measured for CCC(/C(C)=C/C(CNC(=O)c1cccnc1)=N/O)[N+](=O)[O-] (stereo unspecified) ?
Marked response: -2.699

Exam item: Could you share which Log k value was measured for CC/C(=C\C(CNC(C)=O)=N\O)C(C)[N+](=O)[O-] (stereo unspecified) ?
Marked response: -2.092

Exam item: Could you share which Log k value was measured for CC/C(=C\C(CNC(=O)c1cccnc1)=N\O)C(C)[N+](=O)[O-] (stereo unspecified) ?
Marked response: -2.187

Exam item: Could you share which Log k value was measured for CC/C(=C\C(CNC(C)=O)=N\O)C(CC)[N+](=O)[O-] (stereo unspecified) ?
Marked response: -2.585

Exam item: Could you share which Log k value was measured for CC/C(=C\C(CNC(=O)c1cccnc1)=N\O)C(C(C)C)[N+](=O)[O-] (stereo unspecified) ?
Marked response: -3.42

Exam item: Could you share which Log k value was measured for CC/C(=C\C(=N\O)C(N)=O)C(C)[N+](=O)[O-] (stereo unspecified) ?
Marked response: -1.824

Exam item: Could you share which Log k value was measured for CC(C)/C(=C\C(CNC(=O)c1cccnc1)=N\O)C(C)[N+](=O)[O-] (stereo unspecified) ?
Marked response: -2.921

Exam item: Could you share which Log k value was measured for CC/C(=C\C(CNC(C)=O)=N\O)C(C(C)C)[N+](=O)[O-] (stereo unspecified) ?
Marked response: -3.337

Exam item: Could you share which Log k value was measured for CC/C(=C\C(=N\O)C(N)=O)C(CC)[N+](=O)[O-] (stereo unspecified) ?
Marked response: -2.347

----------
- Test protocol: Rate of decomposition in aqueous solution (pH 8.0, 30 degree Celsius) at 580 min
- Format: ADME
- Condition label: buffer, pH 8, 580 min
Parameter: k (min⁻¹)
Entry rule: numbers only, all in min⁻¹.

Exam item: Could you share which k value was measured for CC(C)/C(=C\C(CNC(=O)c1cccnc1)=N\O)C(C)[N+](=O)[O-] (stereo unspecified) ?
Marked response: 0.0012

----------
- Test protocol: Rate of decomposition in aqueous solution (pH 8.0, 30 degree Celsius) at 350 min
- Format: ADME
- Condition label: buffer, pH 8, 350 min
Parameter: k (min⁻¹)
Entry rule: numbers only, all in min⁻¹.

Exam item: Could you share which k value was measured for CC/C(=C\C(CNC(=O)c1cccnc1)=N\O)C(CC)[N+](=O)[O-] (stereo unspecified) ?
Marked response: 0.002
